- Test system: HT29 (colon)
- PROTOCOL TEXT: MTT growth inhibition assay, HT29 (colon) tumour cell line
- Type: cell-based, human
- RUN CONDITIONS: 72 h
VALUE KIND: Im (maximum percentage of inhibition observed) (%)
Write it as a number; the unit % goes unstated.

COMPOUND: CO[C@H]1C[C@@H]2CC[C@@H](C)[C@@](O)(O2)C(=O)C(=O)N2CCCC[C@H]2C(=O)O[C@H]([C@H](C)C[C@@H]2CC[C@@H](O)[C@H](OC)C2)CC(=O)[C@H](C)/C=C(\C)[C@@H](O)[C@@H](OC)C(=O)[C@H](C)C[C@H](C)/C=C/C=C/C=C/1C [rapamycin, reference compound]
UNITS LABEL: %
READOUT NUMBER: 40

Consider COC1CC2CCC(C)C(O)(CC(=O)N3CCCCC3C(=O)OC(C(C)CC3CCC(O)C(OC)C3)CC(=O)C(C)C=C(C)C(O)CC(=O)C(C)CC(C)C=CC=CC=C1C)O2 (stereo not shown) . Its measured Im (maximum percentage of inhibition observed) is 25

Consider `CO[C@@H]1C[C@H](C[C@@H](C)[C@@H]2CC(=O)[C@H](C)/C=C(\C)[C@@H](O)CC(=O)[C@H](C)C[C@H](C)/C=C/C=C/C=C(\C)[C@@H](O)C[C@@H]3CC[C@@H](C)[C@](O)(CC(=O)N4CCCC[C@H]4C(=O)O2)O3)CC[C@H]1O` . Its measured Im (maximum percentage of inhibition observed) is 38

Consider CC1=CC(C)C(=O)CC(C(C)CC2CCC(O)C(O)C2)OC(=O)C2CCCCN2C(=O)CC2(O)OC(CCC2C)CC(O)C(C)=CC=CC=CC(C)CC(C)C(=O)CC1O (stereo not shown) . Its measured Im (maximum percentage of inhibition observed) is 38

* * *

- Test system: HT29 (colon)
- PROTOCOL TEXT: MTT growth inhibition assay, HT29 (colon) tumour cell line
- Type: cell-based, human
- RUN CONDITIONS: 72 h
VALUE KIND: Im (maximum percentage of inhibition observed)
Give your result as the value with the unit written after it.

Consider the worked cases shown below.
COMPOUND: CO[C@@H]1C[C@H](C[C@@H](C)[C@@H]2CC(=O)[C@H](C)/C=C(\C)[C@@H](O)[C@@H](O)C(=O)[C@H](C)C[C@H](C)/C=C/C=C/C=C(\C)[C@@H](O)C[C@@H]3CC[C@@H](C)[C@](O)(CC(=O)N4CCCC[C@H]4C(=O)O2)O3)CC[C@H]1O [Compound 9]
MEASURED TARGET: HT29 (colon)
RESULT: 35%
//
COMPOUND: CO[C@H]1C[C@@H]2CC[C@@H](C)[C@](O)(CC(=O)N3CCCC[C@H]3C(=O)O[C@H]([C@H](C)C[C@@H]3CC[C@@H](O)[C@H](O)C3)CC(=O)[C@H](C)/C=C(\C)[C@@H](O)[C@@H](O)C(=O)[C@H](C)C[C@H](C)/C=C/C=C/C=C/1C)O2 [Compound 8]
MEASURED TARGET: HT29 (colon)
RESULT: 30%

Consider CC1=CC(C)C(=O)CC(C(C)CC2CCC(O)C(O)C2)OC(=O)C2CCCCN2C(=O)C(=O)C2(O)OC(CCC2C)CC(O)C(C)=CC=CC=CC(C)CC(C)C(=O)CC1O (stereo not drawn) [Compound 3] . Its measured Im (maximum percentage of inhibition observed) is 37%

The measured values listed here are drawn from patent US9040259B2.
